- Tested on: B-BT474
- assay-remarks: Proliferation of human cancer cell panel
- Assay type: cell-based
- reported-conditions: read-out: inhibitory activity on proliferation
measured-attribute: pIC50
Conceptually, pIC50 converts a concentration in mol/L into minus its log10.

(Q) I have this compound here, CS(=O)(=O)N1CCN(Cc2cc3nc(-c4cccc5[nH]ncc45)nc(N4CCOCC4)c3s2)CC1 [GDC0941, reference compound] , and I need its recorded pIC50.
(A) 6.59

(Q) CCNC(=O)Nc1cc(C(F)(F)F)c(-c2nc(N3CCOCC3)c3cc(CN4CCN(S(C)(=O)=O)CC4)cn3n2)cn1 , same question.
(A) 7.49

(Q) Param item: COC(=O)Nc1cc(C(F)(F)F)c(-c2nc(N3CCOCC3)c3cc(CN4CCN(S(C)(=O)=O)CC4)cn3n2)cn1
(A) 7.21

// data source = patent US9724352B2
